- Target desc: T1, Kv1.1 (K-Kv1.1, mKate2-tagged) (Homo sapiens, UniProt Q09470)
- T1 chain: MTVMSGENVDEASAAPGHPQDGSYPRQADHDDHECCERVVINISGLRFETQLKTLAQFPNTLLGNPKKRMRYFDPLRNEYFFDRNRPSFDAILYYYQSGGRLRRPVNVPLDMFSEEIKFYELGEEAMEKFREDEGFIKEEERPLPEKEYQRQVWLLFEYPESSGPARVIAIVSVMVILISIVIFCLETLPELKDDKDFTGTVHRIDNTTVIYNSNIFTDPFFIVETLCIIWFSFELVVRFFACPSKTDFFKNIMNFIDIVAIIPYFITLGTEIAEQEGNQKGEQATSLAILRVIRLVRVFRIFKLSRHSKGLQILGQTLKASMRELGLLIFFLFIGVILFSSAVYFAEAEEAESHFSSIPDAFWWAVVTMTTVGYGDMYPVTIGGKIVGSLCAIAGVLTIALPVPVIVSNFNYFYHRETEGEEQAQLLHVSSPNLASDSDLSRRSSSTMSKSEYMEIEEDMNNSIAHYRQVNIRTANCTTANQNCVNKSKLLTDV
- Assay summary: competitive confocal fluorescence binding with A-HgTx, K+ buffer (open state)
# reported Kd; entries follow
Reported property: Kd (nM)

> print(dat)
                                     binder  observed
1  TVIDVKCTSPKQCLPPCKAQFGIRAGAKCMNGKCKCYPH [hongotoxin 1 (HgTx1)]      0.05
2  TIINVKCTSPKQCLPPCKAQFGQSAGAKCMNGKCKCYPH [margatoxin (MgTx)]       0.5
3  TVINVKCTSPKQCLKPCKDLYGPHAGAKCMNGKCKCYNN [Ce1]        18

All values here come from paper PMC10383195.
